Every entry's value here was drawn from patent US10206394B2.

System: Alopecurus myosuroides (ALOMY)
Assay: Glasshouse assay for herbicidal activity (pre- and post-emergence), percentage phytotoxicity
Assay type: in vivo
Details: Alopecurus myosuroides, pre-emergence, 480 h, Rate 250 g/ha; pre-emergence; visual assessment 20 DAA; 100%=total damage, 0%=no damage; read-out: Pre-emergence herbicidal activity (percentage phytotoxicity) ALOMY PRE
Recorded pest or weed control at 250 g/ha values for a group of compounds are listed next.

compound	subject of test	pest or weed control at 250 g/ha (%)
Cc1cc(-c2ncc(Cl)cn2)cc(C)c1C1C(=O)CC(CC(=O)NCc2cccc(F)c2)C1=O (centres unmarked)	Alopecurus myosuroides (ALOMY)	90
C#CCNC(=O)CC1CC(=O)C(c2c(C)cc(-c3ncc(F)cc3F)cc2C)C1=O (centres unmarked)	Alopecurus myosuroides (ALOMY)	100
Cc1cc(C)c(C2=C(OC(=O)C(C)(C)C)CC(CC(=O)NC3COC3)C2=O)c(C)c1 (centres unmarked)	Alopecurus myosuroides (ALOMY)	50
COCC(C)NC(=O)CC1CC(=O)C(c2c(C)cc(-c3ncc(Cl)cn3)cc2C)C1=O (centres unmarked)	Alopecurus myosuroides (ALOMY)	100
Cc1cc(-c2ncc(F)cc2F)cc(C)c1C1C(=O)CC(CC(=O)NOCc2ccccc2)C1=O (centres unmarked)	Alopecurus myosuroides (ALOMY)	60
CCOCOC1=C(c2c(C)cc(-c3ncc(Cl)cn3)cc2C)C(=O)C(CC(=O)NC(C)(C)C)C1 (centres unmarked)	Alopecurus myosuroides (ALOMY)	100
C=Cc1cc(-c2ncc(F)cn2)cc(C)c1C1C(=O)CC(CC(=O)NC(C)(C)C)C1=O (centres unmarked)	Alopecurus myosuroides (ALOMY)	80
CCN(C)C(=O)CC1CC(=O)C(c2c(C)cc(-c3ccc(Cl)cn3)cc2C)C1=O (centres unmarked)	Alopecurus myosuroides (ALOMY)	90
COCC(C)(C)NC(=O)CC1CC(=O)C(c2c(C)cc(-c3ncc(Cl)cn3)cc2C)C1=O (centres unmarked)	Alopecurus myosuroides (ALOMY)	90
Cc1cc(-c2ccc(Cl)cn2)cc(C)c1C1C(=O)CC(CC(=O)NC/C=C/Cl)C1=O (centres unmarked)	Alopecurus myosuroides (ALOMY)	90
COCC(C)NC(=O)CC1CC(=O)C(c2c(C)cc(-c3ncc(F)cc3F)cc2C)C1=O (centres unmarked)	Alopecurus myosuroides (ALOMY)	100
